tested on: U251 CNS; experiment: NCI-60 one-dose screen, 48 h (100 = growth as untreated, 0 = no growth, -100 = all killed); conditions: 10 µM unless noted
About 83,000 compounds went through this panel and 20% of them were active in at least one assay; those are over-represented in the sample as a whole. Calls of active or inactive are those of the source. How the source made its calls: active means growth percent below 10; inactive means the rest.
measured-quantity: growth

1) COc1cccc(/C=C/C(=O)c2c(C)nc3ccccc3c2/C=C/c2ccc(C)cc2)c1OC : 55.3% (inactive)
2) CCN(CC)S(=O)(=O)c1cccc(-c2ccc3c(NC(=O)C4CC4)n[nH]c3c2)c1 : 12.1% [6.25 µM] (inactive)
3) COC(=O)CCC1=C(C)C2=NC1=CC1=NC(=CC3=NC(=Cc4[nH]c(/c(=C(/C)O)c4C)=C2)C(C(C)=O)=C3C)C(C)=C1CCC(=O)OC : 98.9% (inactive)
4) O=c1c2c3c(sc2nc(N/N=C/c2ccc(Br)cc2)n1Cc1ccccc1)CCCC3 : 70.3% (inactive)
5) N#C/C(=C\c1ccc2c(c1)OCO2)n1nnc2cc(F)c(F)cc21 : 83.8% (inactive)

----------
system: CCRF-CEM leukemia; assay: NCI-60 one-dose screen, 48 h (100 = growth as untreated, 0 = no growth, -100 = all killed); details: 10 µM unless noted
About 83,000 compounds went through this panel and 20% of them were active in at least one assay; those are over-represented in the sample as a whole.
measured-quantity: growth (%)

1) O=c1c2cc(F)ccc2sc2c(Nc3cccnc3)nc3ccccc3c12 : 28.2
2) CCOC(=O)c1csc(NC(=O)COc2cccc(/C=C3\Oc4cc(OC)ccc4C3=O)c2)n1 : 62.3
3) O=C(CSc1nnc(-c2ccc(NC(=O)c3cccnc3)cc2)o1)Nc1cccc(Br)c1 : 72.2
4) Cc1cc(NCc2cc(Nc3ccnc4cc(Cl)ccc34)ccc2F)nc(N2CCN(C)CC2)n1 : -13.5
5) O=c1ccn2nc3ccccc3c2[nH]1 : 118
6) Cc1cc(N2CCCC2)nc(NCc2cc(Nc3ccnc4cc(Cl)ccc34)ccc2F)n1 : -32.1
7) COc1ccc(C2CC(c3cccc(OC)c3)=NN2C(=O)c2cc(OC)c(OC)c(OC)c2)cc1 (stereo not given) : 8.7
8) C=CCSc1nc2ccccc2cc1/C=N/O : 95.5
9) COc1cc(CCC[P+](c2ccccc2)(c2ccccc2)c2ccccc2)cc2c1OCO2 : 41.3
10) N=C1CCC(=N)c2c1c(O)c1ccccc1c2O : 98.4
11) O=C(Nc1cccc2c(O)c(N=Nc3ccc(S(=O)(=O)Nc4nccs4)cc3)cc(N=Nc3ccc(S(=O)(=O)Nc4nccs4)cc3)c12)C(Cl)Cl : 72.5
12) CC(C)Sc1nc(NNC(N)=S)c(C#N)c(-c2ccc(F)cc2)n1 : 93.2
13) N#C/C(=C\c1ccc(-c2ccccc2F)o1)c1nc(-c2ccco2)cs1 : 95
14) Cc1ccc(C(=O)CSc2nc(-c3ccc(Br)cc3)c(C#N)c(=O)[nH]2)cc1 : 105
15) COc1ccc2[nH]c(O)c(C(=Nc3ccc(N(C)C(=O)CN4CCN(C)CC4)cc3)c3ccccc3)c2c1 : 23.2
16) O=[N+]([O-])c1ccc(C2CC(c3ccccc3)=Nc3ccccc3S2)cc1 (stereo not given) : 73.2
17) COc1cc(-c2nc(N3CCN(C)CC3)c3ccccc3n2)cc(OC)c1OC : 99.3
18) Cc1cc(NCCCCNc2ccnc3cc(Cl)ccc23)nc(Nc2ccc(C(=O)N3CCCC3)cc2)n1 : 2.01
19) O=C1Nc2ccccc2/C1=C/c1cn(C(=O)c2c(Cl)cccc2Cl)c2ccccc12 : 70.5
20) CCCc1cc2c(=O)c(C(=O)OC)c[nH]c2cc1N(CC)CC : 88.2

----------
test system: HS 578T breast; experiment: NCI-60 one-dose screen, 48 h; conditions: 10 µM unless noted
This is part of a sample that, as a whole, favours compounds with a hit. Of some 83,000 tested, about 20% had one in any assay. Activity calls are given as the source filed them. The calls were made as follows: active = growth percent below 10; inactive = the rest.
Outcomes: TRUE (active), FALSE (inactive)

1) C=C1C(=O)O[C@H]2[C@H]1CC/C(COC(=O)C(=O)c1c[nH]c3ccc(OC)cc13)=C\CC[C@@]1(C)O[C@@H]21 : TRUE
2) CN(C)CCCn1c(=O)c2ccccc2c2ccccc21 : FALSE
3) COCCN(C(=O)c1ccc(F)cc1F)c1c(N)n(Cc2ccccc2)c(=O)[nH]c1=O : FALSE
4) COc1ccccc1CNCCCN1C(=O)c2ccc3c4c(ccc(c24)C1=O)C(=O)N(CCCNCCCCN)C3=O : TRUE
5) COc1cc(-c2nn(-c3ccccc3)cc2-c2ccnc(NCCNS(=O)(=O)c3ccc(Cl)cc3)n2)ccc1Cl : FALSE
6) COc1cccc(-c2nn(-c3ccccc3)cc2-c2ccnc(NCCNC(=O)Nc3cccc(C(F)(F)F)c3)c2)c1 : TRUE
7) Cn1cc(-c2csc(-c3cccc(F)c3)n2)c2cccnc21 : FALSE
8) CC1(C)CC(=O)CC2(C1)N=C(N)Nc1nc3ccccc3n12 (centres undefined) : FALSE
9) CCc1ccccc1NC(=O)/C(C#N)=C/c1ccc(OC)cc1 : FALSE

----------
test system: SK-OV-3 ovarian; experiment: NCI-60 one-dose screen, 48 h; conditions: 10 µM unless noted
This is part of a sample that, as a whole, favours compounds with a hit. Of some 83,000 tested, about 20% had one in any assay. Calls of active or inactive are those of the source. The calls were made as follows: active = growth percent below 10; inactive = the rest.
Outcomes: 1 = active, -1 = inactive

1. CC1=C([Se]CC(OC(=O)[C@@H](CO)NC(=O)OC(C)(C)C)C(=O)NC(C)(C)C)C(=O)c2ccccc2C1=O (some centres undefined) : 1
2. C=CC(=O)Nc1cccc(Oc2nccc(Nc3nnc(C4CC4)s3)n2)c1 : -1
3. O=c1c2cc(F)ccc2sc2c(NCCN3CCCCC3)nc3ccccc3c12 : -1
4. Cc1cc(NCc2cc(Nc3ccnc4cc(Cl)ccc34)ccc2F)nc(N2CCCC2)n1 : -1
5. COc1cc(/C=C/C(=O)c2c(C)nc3ccccc3c2C)ccc1OCCCN1CCN(C(=O)c2ccco2)CC1 : -1
6. Cn1c2c(c3ccc(Cl)c(Cl)c31)C(C#N)C1(CCNCC1)NC2=O (centres undefined) : -1
7. CNC(=O)CCN1CCN(CC/C=C2\c3ccccc3Sc3ccc(Cl)cc32)CC1 : -1
8. Cc1ccc(/C=C/c2c(C(=O)/C=C/c3ccc(Cl)cc3)c(C)nc3ccccc23)cc1 : -1
9. Cc1ccc(Cc2cnc(NC(=O)c3ccc4noc(-c5ccccc5)c4c3)s2)cc1 : -1
10. Cc1cc(NCc2cc(Nc3ccnc4cc(Cl)ccc34)ccc2F)nc(N2CCN(C)CC2)n1 : -1
11. COc1ccc(S(=O)(=O)NCCNc2nccc(-c3c(-c4cccc(F)c4)nc4sccn34)n2)cc1 : -1
12. Cc1ccc(S(=O)(=O)N/N=C\c2cc(Cl)ccc2O)cc1 : -1
13. COc1ccc(NC(=O)CSc2nnc(-c3cc(-c4ccc(S(N)(=O)=O)cc4)nc4ccccc34)n2-c2ccccc2)cc1 : -1
14. COc1ccc2[nH]c(O)c(/C=c3/cc4c(c(-c5cc(OC)c(OC)c(OC)c5)n3)=Nc3ccccc3-4)c2c1 : -1
15. O=c1cc(C2NNC(=S)N2)c2ccc3ccccc3c2o1 (centres undefined) : -1
16. Cc1ccc2nc(NC(=O)CSc3nc(-c4ccccc4)c(C#N)c(=O)n3Cc3ccccc3)sc2c1 : -1
17. O=C1/C(=C/c2ccccc2)CCc2nc3ccccc3c(/C=C/c3ccc(Cl)cc3)c21 : -1
18. CCCCC1CCCCN1C(=O)OCC (centres undefined) : -1
19. O=C(Nc1cccc(Cl)c1)c1cc(N=Nc2ccc([N+](=O)[O-])cc2Cl)ccc1O : -1
20. CNC(=O)c1cc(Oc2ccc3nc(Nc4ccc(Cl)c(C(F)(F)F)c4)ccc3c2)ccn1 : -1
21. COc1ccc(N=C(c2ccccc2)C2C(=O)c3ccccc3C2=O)cc1 : -1
22. Cc1c(C(=O)OC(=NC2CCCCC2)NC2CCCCC2)sc2c1c(=O)nc1c(C#N)n[nH]n12 : -1
23. Cc1ccc(-c2cc(-c3cccnc3)[nH]c(=O)c2C#N)cc1 : -1
24. CC(C)Sc1nc(NNC(N)=S)c(C#N)c(-c2ccc(F)cc2)n1 : -1
25. COc1ccc(/C=N\NC(=O)c2cc(-c3ccc(Br)cc3)n(-c3ccc(S(N)(=O)=O)cc3)n2)cc1 : -1
26. COc1ccc(N2CCN(c3nc(-c4cc(OC)c(OC)c(OC)c4)nc4ccccc34)CC2)cc1 : -1
27. CC(=O)N1C(=S)NC(=O)C1Cn1c(-c2ccccc2)nc2ccccc21 (centres undefined) : -1
28. COc1cc(C2CC(=O)Nc3c2c(C)nn3-c2nc3ccccc3[nH]2)cc2c1OCC(=O)N2 (centres undefined) : -1
29. C=CCn1c(C)nc2cc(Nc3nc(Cl)nc4ccccc34)ccc21 : -1
30. COc1ccc(-c2nc(SCC(=O)Nc3nc(-c4ccccc4)cs3)[nH]c(=O)c2C#N)cc1 : -1
31. Cc1ccc2[nH]c(=O)c3c(c2c1)OC(N)=C(C#N)C31c2cc(Br)ccc2-c2ccc(Br)cc21 : -1
32. O=C1C=C[C@]2(C[C@@H](c3cccc(C(F)(F)F)c3)O[C@@H](c3cccc(C(F)(F)F)c3)O2)O1 : -1
33. N/C(=N\c1nc2ccccc2s1)NC(=O)Nc1cccc(Cl)c1 : -1
34. CCOC(=O)c1c2c(n3ccc(NC(=O)OC(C)(C)C)cc13)C(=O)c1ncccc1C2=O : 1
35. O=C(N/N=C/c1ccncc1)c1ccc(C(F)(F)F)nc1Nc1cccc(C(F)(F)F)c1 : -1
36. CCOC(=O)c1c2ncccc2n2c(=O)n(-c3ccccc3C)nnc12 : -1
37. CCOc1ccccc1-c1cc(-c2cccs2)c(C#N)c(=O)[nH]1 : -1
38. CCC(CO)Nc1nc2ccc(Cl)cc2c2ccccc12 (centres undefined) : -1
39. COc1cccc(-c2nn(-c3ccccc3)cc2-c2ccnc(NCCCNC(=O)c3cccc(C(F)(F)F)c3)c2)c1 : -1
